Cited source: ChEMBL document CHEMBL1121715

For each of the molecules below, state its Loss of righting reflex.
Species on record: Mus musculus
ASSAY: Percentage toxicity measured as loss of righting reflex.
Type: organism-based
EXPERIMENTAL SETUP: in vivo
The reply should contain only the number, in %.

The molecule COc1ccc2c(c1)CCCC21CC(=O)N(CCCN(C)C)C1=O (configuration not stated) showed Loss of righting reflex equal to 0

The molecule COc1ccc2c(c1)CCCC21CC(=O)N(CCN(C)C)C1=O (configuration not stated) showed Loss of righting reflex equal to 0

The molecule CCN(CC)CCCCN1C(=O)CC2(CCCc3cc(O)ccc32)C1=O (configuration not stated) showed Loss of righting reflex equal to 0

The molecule COCCN(C)CCCN1C(=O)CC2(CCCc3ccccc32)C1=O (configuration not stated) showed Loss of righting reflex equal to 100

The molecule O=C1NC(=O)C(C2CCc3ccccc3C2)N1 (configuration not stated) showed Loss of righting reflex equal to 0

The molecule CCN(CC)CCCCN1C(=O)CC2(CCCc3ccccc32)C1=O (configuration not stated) showed Loss of righting reflex equal to 0

The molecule CCN(CC)CCCN1C(=O)CC(c2ccccc2)C1=O (configuration not stated) showed Loss of righting reflex equal to 0

The molecule CCN(CC)CC(=O)Nc1c(C)cccc1C [LIDOCAINE] showed Loss of righting reflex equal to 100

The molecule CN(CCO)CCN1C(=O)CC2(CCc3ccccc3C2)C1=O (configuration not stated) showed Loss of righting reflex equal to 0

The molecule O=C1CC2(CCCc3ccccc32)C(=O)N1CCCN1CCOCC1 (configuration not stated) showed Loss of righting reflex equal to 0

The molecule CN(C)CCCCN1C(=O)CC2(CCCc3ccc(O)cc32)C1=O (configuration not stated) showed Loss of righting reflex equal to 0

The molecule CCN(CC)CCCN1C(=O)CC2(CCCc3ccc(Cl)cc32)C1=O (configuration not stated) showed Loss of righting reflex equal to 0

====

For each of the molecules below, state its Cmax.
ASSAY: Maximal concentration in dogs after intravenous administration
EXPERIMENTAL SETUP: dog, in vivo
The reply should contain only the number, in µM.

The molecule CCN(CC)CCCN1C(=O)CC2(CCCc3ccc(O)cc32)C1=O (stereo not drawn) showed Cmax equal to 31

The molecule CCN(CC)CCCCN1C(=O)CC2(CCCc3ccc(OC)cc32)C1=O (stereo not drawn) showed Cmax equal to 29

The molecule CN(C)CCCCN1C(=O)CC2(CCCc3ccc(O)cc32)C1=O (stereo not drawn) showed Cmax equal to 37

====

Organism: Canis familiaris
ASSAY: The dose at which toxicity was measured.
Assay type: organism-based, Canis lupus familiaris
EXPERIMENTAL SETUP: dog, in vivo
MEASUREMENT TYPE: Cumulative dose

The molecule `CCN(CC)CC(=O)Nc1c(C)cccc1C` showed Cumulative dose equal to 0.27

The molecule Cc1cccc(C)c1NC(=O)C(C)N (centres undefined) [TOCAINIDE] showed Cumulative dose equal to 0.3

The molecule CCN(CC)CCCCN1C(=O)CC2(CCCc3ccc(OC)cc32)C1=O (centres undefined) showed Cumulative dose equal to 0.02

The molecule CCN(CC)CCCCN1C(=O)CC2(CCCc3ccc(O)cc32)C1=O (centres undefined) showed Cumulative dose equal to 0.063

====

ASSAY: Maximal concentration in dogs after 34 umol/kg intravenous dose
EXPERIMENTAL SETUP: dog, in vivo
MEASUREMENT TYPE: Cmax (µM)
The reply should contain only the number, in µM.

The molecule CCN(CC)CCCCN1C(=O)CC2(CCCc3ccc(OC)cc32)C1=O (stereo unspecified) showed Cmax equal to 12

====

Species on record: Mus musculus
ASSAY: Percentage toxicity measured as convulsions.
Format: organism-based
EXPERIMENTAL SETUP: in vivo
MEASUREMENT TYPE: Convulsion

The compound CCN(CC)CCCCN1C(=O)CC2(CCCc3ccc(O)cc32)C1=O (stereo unspecified) showed Convulsion equal to 0%

The compound CCN(CC)CCCCN1C(=O)CC2(CCCc3ccc(OC)cc32)C1=O (stereo unspecified) showed Convulsion equal to 0%

The compound CCN(CC)CCN1C(=O)CC2(CCCc3ccc(O)cc32)C1=O (stereo unspecified) showed Convulsion equal to 0%

The compound CCN(CC)C(C)CCN1C(=O)CC2(CCCc3ccccc32)C1=O (stereo unspecified) showed Convulsion equal to 0%

The compound CCN(CC)C(C)CN1C(=O)CC2(CCCc3ccccc32)C1=O (stereo unspecified) showed Convulsion equal to 100%

The compound CCN(CC)CCCCN1C(=O)CC2(CCCc3cc(O)ccc32)C1=O (stereo unspecified) showed Convulsion equal to 0%

====

ASSAY: Volume of distribution was measured at given dose of 43 umol/kg
Format: ADME, organism-based
EXPERIMENTAL SETUP: in vivo
MEASUREMENT TYPE: Vd (L/kg)
The reply should contain only the number, in L/kg.

The compound CCN(CC)CCCCN1C(=O)CC2(CCCc3ccc(OC)cc32)C1=O (stereo unspecified) showed Vd equal to 2.47

====

Test system: Canis familiaris
ASSAY: Maximal concentration in dogs after intravenous administration
EXPERIMENTAL SETUP: dog, in vivo
MEASUREMENT TYPE: Cmax (µM)
The reply should contain only the number, in µM.

The compound CCN(CC)CCCCN1C(=O)CC2(CCCc3ccc(OC)cc32)C1=O (configuration not stated) showed Cmax equal to 20

The compound CN(C)CCCCN1C(=O)CC2(CCCc3ccc(O)cc32)C1=O (configuration not stated) showed Cmax equal to 30

====

ASSAY: Volume of distribution was measured at given dose of 81 umol/kg
Format: ADME, organism-based
EXPERIMENTAL SETUP: in vivo
MEASUREMENT TYPE: Vd (L/kg)
The reply should contain only the number, in L/kg.

The molecule CCN(CC)CCCCN1C(=O)CC2(CCCc3ccc(OC)cc32)C1=O (stereo unspecified) showed Vd equal to 3.41

====

ASSAY: Maximal concentration in dogs after 29 umol/kg intravenous dose
EXPERIMENTAL SETUP: dog, in vivo
MEASUREMENT TYPE: Cmax (µM)
The reply should contain only the number, in µM.

The molecule CCN(CC)CCCN1C(=O)CC2(CCCc3ccc(O)cc32)C1=O (stereo unspecified) showed Cmax equal to 15

====

ASSAY: Total body clearance was measured at given dose.
Assay type: ADME, organism-based
EXPERIMENTAL SETUP: in vivo, ClB
MEASUREMENT TYPE: clearance (mL/min/kg)
The reply should contain only the number, in mL/min/kg.

The compound CCN(CC)CCCCN1C(=O)CC2(CCCc3ccc(OC)cc32)C1=O (stereo unspecified) showed clearance equal to 10.4

====

Species: Mus musculus
ASSAY: Percentage toxicity measured as convulsions.
Format: organism-based
EXPERIMENTAL SETUP: in vivo
MEASUREMENT TYPE: Convulsion (%)
The reply should contain only the number, in %.

The molecule CCN(CC)CCCCCN1C(=O)CC2(CCCc3ccccc32)C1=O (racemic) showed Convulsion equal to 0

The molecule CCN(CC)CCCN1C(=O)CC(c2ccccc2)C1=O (stereo not drawn) showed Convulsion equal to 0

The molecule O=C1CC2(CCCc3ccccc32)C(=O)N1CCCN1CCOCC1 (stereo not drawn) showed Convulsion equal to 0

The molecule CCN(CC)CCCCN1C(=O)CC2(CCCc3ccccc32)C1=O (stereo not drawn) showed Convulsion equal to 0

The molecule CCN(CC)C(C)CCN1C(=O)CC2(CCCc3ccc(O)cc32)C1=O (stereo not drawn) showed Convulsion equal to 100

The molecule CCN(CC)CCCN1C(=O)CC2(CCCc3ccc(Cl)cc32)C1=O (stereo not drawn) showed Convulsion equal to 0

The molecule COc1ccc2c(c1)CCCC21CC(=O)N(CCCN(C)C)C1=O (stereo not drawn) showed Convulsion equal to 0

The molecule `CCN(CC)CC(=O)Nc1c(C)cccc1C` showed Convulsion equal to 100

The molecule CN(CCO)CCN1C(=O)CC2(CCCc3ccccc32)C1=O (stereo not drawn) showed Convulsion equal to 0

The molecule CCN(CC)CCCCCN1C(=O)CC2(CCCc3ccccc32)C1=O (single isomer, unassigned; (-)) showed Convulsion equal to 30

The molecule NCCCCCN1C(=O)CC2(CCCc3ccccc32)C1=O (stereo not drawn) showed Convulsion equal to 0

The molecule CCN(CC)CCCN1C(=O)CC2(CCCc3ccc(OC(C)C)cc32)C1=O (stereo not drawn) showed Convulsion equal to 100

The molecule O=C1NC(=O)C(C2CCc3ccccc3C2)N1 (stereo not drawn) showed Convulsion equal to 0

The molecule CN(CCO)CCCN1C(=O)CC2(CCCc3ccccc32)C1=O (stereo not drawn) showed Convulsion equal to 0

The molecule CN(CCO)CCCCN1C(=O)CC2(CCCc3ccccc32)C1=O (stereo not drawn) showed Convulsion equal to 0

The molecule Cc1cccc(C)c1NC(=O)C(C)N (stereo not drawn) [TOCAINIDE] showed Convulsion equal to 0

The molecule CN(C)CCCCN1C(=O)CC2(CCCc3ccc(O)cc32)C1=O (stereo not drawn) showed Convulsion equal to 0

The molecule CCN(CC)CCCN1C(=O)CC2(CCCc3ccccc32)C1=O (stereo not drawn) showed Convulsion equal to 0

The molecule COCCN(C)CCCN1C(=O)CC2(CCCc3ccccc32)C1=O (stereo not drawn) showed Convulsion equal to 100

The molecule CN(CCO)CCN1C(=O)CC2(CCc3ccccc3C2)C1=O (stereo not drawn) showed Convulsion equal to 40

The molecule CCN(CC)CCCN1C(=O)CC2(CCCc3ccc(O)cc32)C1=O (stereo not drawn) showed Convulsion equal to 0

The molecule CCCC1(c2ccccc2)CC(=O)N(CCN(C)C)C1=O (stereo not drawn) showed Convulsion equal to 0

The molecule CCN(CC)CCCN1C(=O)CC2(CCCc3ccc(C)cc32)C1=O (stereo not drawn) showed Convulsion equal to 0
